biological target: HDAC6 (Homo sapiens, UniProt Q9UBN7); construct: purchased Reaction Biology Corporation (assay run by the CRO); assay: HDAC6 inhibition, full IC50 measurement (Reaction Biology; fluorogenic p53 peptide RHKK(Ac)AMC); assay type: biochemical; conditions: Conc. 4.57E-09 M, t2
Peptide text beside a SMILES is read from it.
Quick reference for HDAC6 activity raw data (signal) among some compounds

Some compounds with recorded HDAC6 activity raw data (signal):
CCCC[C@H]1NC(=O)[C@H](Cc2ccccc2)NC(=O)[C@H](CCCCCS)NC(=O)[C@@H](CCCNC(=N)N)NC(=O)[C@H](C)NC(=O)[C@@H](CO)NC(=O)[C@@H](C)NC(=O)[C@H](CCCCN)NC1=O [des4.3.1.3, SHA-Phe-dNle-Lys-dAla-dSer-Ala-dArg] (HELM PEPTIDE1{A.[dR].[O=C([C@H](CCCCCS)N[*:1])[*:2]].F.[CCCC[C@@H](N[*:1])C(=O)[*:2]].K.[dA].[dS]}$PEPTIDE1,PEPTIDE1,1:R1-8:R2$$$V2.0); 1051810
N=C(N)NCCC[C@@H]1NC(=O)[C@@H](CCCNC(=N)N)NC(=O)[C@H]2CCCN2C(=O)[C@@H](Cc2c[nH]cn2)NC(=O)[C@H](Cc2ccc(O)cc2)NC(=O)[C@H](CCCCCS)NC(=O)[C@H](CCc2ccccc2)NC(=O)[C@@H](CO)NC(=O)[C@H](CC(=O)O)NC1=O [des3.3.1, SHA-Tyr-dHis-dPro-dArg-Arg-Asp-dSer-C27] (HELM PEPTIDE1{[O=C([C@H](CCCCCS)N[*:1])[*:2]].Y.[dH].[dP].[dR].R.D.[dS].[O=C([C@H](CCc1ccccc1)N[*:1])[*:2]]}$PEPTIDE1,PEPTIDE1,1:R1-9:R2$$$V2.0); 120171

Problem: Request - read-out HDAC6 activity raw data (signal) | tested on HDAC6 (Homo sapiens, UniProt Q9UBN7) | compound CC(C)[C@@H]1NC(=O)[C@H](CCCNC(=N)N)NC(=O)[C@@H](CC(=O)O)NC(=O)[C@H](CO)NC(=O)[C@@H](CO)NC(=O)[C@@H](CCC(=O)O)NC(=O)[C@H](Cc2ccc(O)cc2)NC(=O)[C@H](CCCCCS)NC1=O [des4.2.0, SHA-Tyr-dGlu-dSer-Ser-dAsp-Arg-Val] (HELM PEPTIDE1{R.V.[O=C([C@H](CCCCCS)N[*:1])[*:2]].Y.[dE].[dS].S.[dD]}$PEPTIDE1,PEPTIDE1,1:R1-8:R2$$$V2.0)
Solution: 1107939

###

target: HDAC6 (Homo sapiens, UniProt Q9UBN7); construct: purchased Reaction Biology Corporation (assay run by the CRO); test: HDAC6 inhibition, full IC50 measurement (Reaction Biology; fluorogenic p53 peptide RHKK(Ac)AMC); format: biochemical; details: Conc. 1.23E-07 M, t2
Peptide text beside a SMILES is read from it.
reported metric: HDAC6 activity raw data (signal)

Problem: Given the compound CCCC[C@H]1NC(=O)[C@H](CC(=O)O)NC(=O)[C@@H](CO)NC(=O)[C@@H](C)NC(=O)[C@H](CCCCN)NC(=O)[C@@H](CCCCN)NC(=O)[C@H](Cc2ccccc2)NC(=O)[C@H](CCCCCS)NC1=O [des4.3.1.2, SHA-Phe-dLys-Lys-dAla-dSer-Asp-dNle] (HELM PEPTIDE1{D.[CCCC[C@@H](N[*:1])C(=O)[*:2]].[O=C([C@H](CCCCCS)N[*:1])[*:2]].F.[dK].K.[dA].[dS]}$PEPTIDE1,PEPTIDE1,1:R1-8:R2$$$V2.0) , what is its reported HDAC6 activity raw data (signal)?
Solution: 1556041

Problem: Given the compound N=C(N)NCCC[C@@H]1NC(=O)[C@@H](CCCNC(=N)N)NC(=O)[C@H]2CCCN2C(=O)[C@@H](Cc2c[nH]cn2)NC(=O)[C@H](Cc2ccc(O)cc2)NC(=O)[C@H](CCCCCS)NC(=O)[C@H](CCc2ccccc2)NC(=O)[C@@H](CO)NC(=O)[C@H](CC(=O)O)NC1=O [des3.3.1, SHA-Tyr-dHis-dPro-dArg-Arg-Asp-dSer-C27] (HELM PEPTIDE1{[O=C([C@H](CCCCCS)N[*:1])[*:2]].Y.[dH].[dP].[dR].R.D.[dS].[O=C([C@H](CCc1ccccc1)N[*:1])[*:2]]}$PEPTIDE1,PEPTIDE1,1:R1-9:R2$$$V2.0) , what is its reported HDAC6 activity raw data (signal)?
Solution: 38979

###

molecular target: HDAC6 (Homo sapiens); construct: purchased Reaction Biology Corporation (assay run by the CRO); test: HDAC6 inhibition, full IC50 measurement (Reaction Biology; fluorogenic p53 peptide RHKK(Ac)AMC); type: biochemical; conditions: Conc. 1.52E-09 M, t2
Peptide text beside a SMILES is read from it.
Quick reference for HDAC6 activity raw data (signal) among some compounds
Write the value as a bare number.

Problem: Request - read-out HDAC6 activity raw data (signal) | tested on HDAC6 (Homo sapiens) | compound CCCC[C@H]1NC(=O)[C@H](Cc2ccccc2)NC(=O)[C@H](CCCCCS)NC(=O)[C@@H](CCCNC(=N)N)NC(=O)[C@H](C)NC(=O)[C@@H](CO)NC(=O)[C@@H](C)NC(=O)[C@H](CCCCN)NC1=O [des4.3.1.3, SHA-Phe-dNle-Lys-dAla-dSer-Ala-dArg] (HELM PEPTIDE1{A.[dR].[O=C([C@H](CCCCCS)N[*:1])[*:2]].F.[CCCC[C@@H](N[*:1])C(=O)[*:2]].K.[dA].[dS]}$PEPTIDE1,PEPTIDE1,1:R1-8:R2$$$V2.0)
Solution: 1354635

Problem: Request - read-out HDAC6 activity raw data (signal) | tested on HDAC6 (Homo sapiens) | compound C[C@H](O)[C@H]1NC(=O)[C@H](Cc2c[nH]c3ccccc23)NC(=O)[C@H](CCCCCS)NC(=O)[C@H](CCCCN)NC(=O)[C@@H](CC(=O)O)NC(=O)[C@@H](CCCCN)NC(=O)[C@@H](CO)NC(=O)[C@H](CC(N)=O)NC(=O)[C@H](CC(=O)O)NC1=O [des2.1.0, SHA-Trp-dThr-Asp-Asn-dSer-dLys-dAsp-Lys] (HELM PEPTIDE1{D.N.[dS].[dK].[dD].K.[O=C([C@H](CCCCCS)N[*:1])[*:2]].W.[dT]}$PEPTIDE1,PEPTIDE1,1:R1-9:R2$$$V2.0)
Solution: 526073

Problem: Request - read-out HDAC6 activity raw data (signal) | tested on HDAC6 (Homo sapiens) | compound NCCCC[C@@H]1NC(=O)[C@@H]2CCCN2C(=O)[C@H](CC(N)=O)NC(=O)[C@H](CCCCCS)NC(=O)CNC(=O)[C@H](Cc2c[nH]c3ccccc23)NC(=O)[C@@H](CCCCN)NC(=O)[C@H](CCC(N)=O)NC1=O [des1.1.0, SHA-Asn-Pro-Lys-Gln-dLys-Trp-Gly] (HELM PEPTIDE1{G.[O=C([C@H](CCCCCS)N[*:1])[*:2]].N.P.K.Q.[dK].W}$PEPTIDE1,PEPTIDE1,1:R1-8:R2$$$V2.0)
Solution: 570644

###

Biological target: HDAC6 (Homo sapiens)
Construct: purchased Reaction Biology Corporation (assay run by the CRO)
Sequence (Q9UBN7 1-1215): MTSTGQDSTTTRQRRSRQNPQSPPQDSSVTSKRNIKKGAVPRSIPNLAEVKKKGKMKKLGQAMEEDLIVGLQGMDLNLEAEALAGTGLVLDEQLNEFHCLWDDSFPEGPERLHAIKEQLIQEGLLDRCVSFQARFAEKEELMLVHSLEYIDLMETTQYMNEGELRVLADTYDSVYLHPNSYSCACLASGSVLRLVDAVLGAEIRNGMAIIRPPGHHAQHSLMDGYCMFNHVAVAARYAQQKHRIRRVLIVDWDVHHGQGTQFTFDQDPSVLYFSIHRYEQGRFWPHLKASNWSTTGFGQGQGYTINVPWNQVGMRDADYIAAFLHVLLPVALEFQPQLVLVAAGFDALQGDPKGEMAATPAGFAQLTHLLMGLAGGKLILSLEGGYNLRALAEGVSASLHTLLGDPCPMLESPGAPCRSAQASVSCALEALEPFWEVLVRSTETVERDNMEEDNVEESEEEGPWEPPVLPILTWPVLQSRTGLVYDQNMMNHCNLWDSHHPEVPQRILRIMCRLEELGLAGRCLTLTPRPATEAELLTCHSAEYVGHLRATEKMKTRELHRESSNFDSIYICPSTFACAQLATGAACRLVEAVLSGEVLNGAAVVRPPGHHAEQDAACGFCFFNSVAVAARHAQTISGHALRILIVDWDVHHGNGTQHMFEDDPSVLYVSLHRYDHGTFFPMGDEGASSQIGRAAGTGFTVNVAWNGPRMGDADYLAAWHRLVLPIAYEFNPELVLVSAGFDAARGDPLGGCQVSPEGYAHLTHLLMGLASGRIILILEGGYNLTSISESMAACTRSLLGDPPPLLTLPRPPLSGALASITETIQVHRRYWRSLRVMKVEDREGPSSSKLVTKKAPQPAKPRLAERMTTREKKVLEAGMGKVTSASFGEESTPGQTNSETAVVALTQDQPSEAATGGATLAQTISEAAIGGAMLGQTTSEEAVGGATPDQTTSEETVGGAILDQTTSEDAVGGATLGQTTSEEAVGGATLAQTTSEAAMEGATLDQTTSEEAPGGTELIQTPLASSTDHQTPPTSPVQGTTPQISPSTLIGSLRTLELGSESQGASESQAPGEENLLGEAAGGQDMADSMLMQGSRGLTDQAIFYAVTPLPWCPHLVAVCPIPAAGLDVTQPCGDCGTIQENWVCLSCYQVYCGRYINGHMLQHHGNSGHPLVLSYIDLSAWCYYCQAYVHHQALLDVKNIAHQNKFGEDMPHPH
Assay: HDAC6 inhibition, full IC50 measurement (Reaction Biology; fluorogenic p53 peptide RHKK(Ac)AMC)
Assay type: biochemical
Conditions: Conc. 5.08E-10 M, t1
Peptide text beside a SMILES is read from it.
Quick reference for HDAC6 activity raw data (signal) among some molecules
Write the value as a bare number.

Problem: Request - read-out HDAC6 activity raw data (signal) | tested on HDAC6 (Homo sapiens) | molecule N=C(N)NCCC[C@@H]1NC(=O)[C@@H](CCCNC(=N)N)NC(=O)[C@H]2CCCN2C(=O)[C@@H](Cc2c[nH]cn2)NC(=O)[C@H](Cc2ccc(O)cc2)NC(=O)[C@H](CCCCCS)NC(=O)[C@H](CCc2ccccc2)NC(=O)[C@@H](CO)NC(=O)[C@H](CC(=O)O)NC1=O [des3.3.1, SHA-Tyr-dHis-dPro-dArg-Arg-Asp-dSer-C27] (HELM PEPTIDE1{[O=C([C@H](CCCCCS)N[*:1])[*:2]].Y.[dH].[dP].[dR].R.D.[dS].[O=C([C@H](CCc1ccccc1)N[*:1])[*:2]]}$PEPTIDE1,PEPTIDE1,1:R1-9:R2$$$V2.0)
Solution: 151999

Problem: Request - read-out HDAC6 activity raw data (signal) | tested on HDAC6 (Homo sapiens) | molecule CCCC[C@H]1NC(=O)[C@H](Cc2ccccc2)NC(=O)[C@H](CCCCCS)NC(=O)[C@@H](CO)NC(=O)[C@H](CC(=O)O)NC(=O)[C@@H](CO)NC(=O)[C@@H](C)NC(=O)[C@H](CCCCN)NC1=O [des4.3.1.1, SHA-Phe-dNle-Lys-dAla-dSer-Asp-dSer] (HELM PEPTIDE1{D.[dS].[O=C([C@H](CCCCCS)N[*:1])[*:2]].F.[CCCC[C@@H](N[*:1])C(=O)[*:2]].K.[dA].[dS]}$PEPTIDE1,PEPTIDE1,1:R1-8:R2$$$V2.0)
Solution: 1620579

Problem: Request - read-out HDAC6 activity raw data (signal) | tested on HDAC6 (Homo sapiens) | molecule CC(C)[C@@H]1NC(=O)[C@H](CCCNC(=N)N)NC(=O)[C@@H](CC(=O)O)NC(=O)[C@H](CO)NC(=O)[C@@H](CO)NC(=O)[C@@H](CCC(=O)O)NC(=O)[C@H](Cc2ccc(O)cc2)NC(=O)[C@H](CCCCCS)NC1=O [des4.2.0, SHA-Tyr-dGlu-dSer-Ser-dAsp-Arg-Val] (HELM PEPTIDE1{R.V.[O=C([C@H](CCCCCS)N[*:1])[*:2]].Y.[dE].[dS].S.[dD]}$PEPTIDE1,PEPTIDE1,1:R1-8:R2$$$V2.0)
Solution: 1904356

Problem: Request - read-out HDAC6 activity raw data (signal) | tested on HDAC6 (Homo sapiens) | molecule NCCCC[C@@H]1NC(=O)[C@@H]2C[C@@H](O)CN2C(=O)[C@H](CC(N)=O)NC(=O)[C@H](CCCCCS)NC(=O)CNC(=O)[C@H](Cc2c[nH]c3ccccc23)NC(=O)[C@@H](CCCCN)NC(=O)[C@H](CCC(N)=O)NC1=O [des1.1.2, SHA-Asn-Hpr-Lys-Gln-dLys-Trp-Gly] (HELM PEPTIDE1{G.[O=C([C@H](CCCCCS)N[*:1])[*:2]].N.[Hyp].K.Q.[dK].W}$PEPTIDE1,PEPTIDE1,1:R1-8:R2$$$V2.0)
Solution: 597163

Problem: Request - read-out HDAC6 activity raw data (signal) | tested on HDAC6 (Homo sapiens) | molecule C[C@H](O)[C@H]1NC(=O)[C@H](Cc2c[nH]c3ccccc23)NC(=O)[C@H](CCCCCS)NC(=O)[C@H](CCCCN)NC(=O)[C@@H](CC(=O)O)NC(=O)[C@@H](CCCCN)NC(=O)[C@@H](CO)NC(=O)[C@H](CC(N)=O)NC(=O)[C@H](CC(=O)O)NC1=O [des2.1.0, SHA-Trp-dThr-Asp-Asn-dSer-dLys-dAsp-Lys] (HELM PEPTIDE1{D.N.[dS].[dK].[dD].K.[O=C([C@H](CCCCCS)N[*:1])[*:2]].W.[dT]}$PEPTIDE1,PEPTIDE1,1:R1-9:R2$$$V2.0)
Solution: 609077
